Test system: MRSA
TEST METHOD NOTES: Antibacterial susceptibility testing, MRSA
Assay type: cell-based, methicillin resistant Staphylococcus aureus
CONDITION INFO: Table 1
Could you label it True if measured MRS IC50 is 0.5 µg/mL or higher, and False otherwise?

Example results:
{"MOLECULE": "[I-].[O-][S+](c1cccc(C(F)(F)F)c1)c1cc2ccccc2[n+](CCCCCc2ccccc2)c1 (centres unmarked) [XYZ-IV-87]", "CLASSIFICATION": "False"}
{"MOLECULE": "[I-].[O-][S+](c1ccccc1)c1cc2ccccc2[n+](CCCCCc2ccccc2)c1 (centres unmarked) [XYZ-IV-79]", "CLASSIFICATION": "True"}
{"MOLECULE": "COc1ccccc1Sc1cc2ccccc2[n+](CCCCCc2ccccc2)c1.[I-] [XYZ-IV-18]", "CLASSIFICATION": "False"}
{"MOLECULE": "Fc1ccc(Sc2cc3ccccc3[n+](CCCCCc3ccccc3)c2)cc1.[I-] [XYZ-III-63]", "CLASSIFICATION": "True"}
{"MOLECULE": "COc1ccc([S+]([O-])c2cc3ccccc3[n+](CCCCCc3ccccc3)c2)cc1.[I-] (centres unmarked) [XYZ-V-21]", "CLASSIFICATION": "True"}
{"MOLECULE": "[I-].[O-][S+](c1cc2ccccc2[n+](CCCCCc2ccccc2)c1)c1ccccc1F (centres unmarked) [XYZ-IV-100]", "CLASSIFICATION": "True"}
{"MOLECULE": "FC(F)(F)c1ccccc1Sc1cc2ccccc2[n+](CCCCCc2ccccc2)c1.[I-] [XYZ-IV-25]", "CLASSIFICATION": "False"}
{"MOLECULE": "[I-].[O-][S+](c1cc2ccccc2[n+](CCCCCc2ccccc2)c1)c1ccccc1Cl (centres unmarked) [XYZ-V-9]", "CLASSIFICATION": "True"}

Does the reported MRS IC50 for COc1ccc(Sc2cc3ccccc3[n+](CCCCCc3ccccc3)c2)cc1.[I-] [XYZ-III-72] fall at or above the 0.5 µg/mL mark?
True

Does MRS IC50 meet or surpass 0.5 µg/mL for [I-].c1ccc(CCCCC[n+]2cc(Sc3ccccc3)cc3ccccc32)cc1 [XYZ-III-54] ?
True

Is the recorded value of MRS IC50 equal to or greater than 0.5 µg/mL for this molecule? O=C(c1ccc(Cl)cc1)c1cc2ccccc2[n+](CCCCCc2ccccc2)c1.[I-] [XYZ-V-62]
False

Identify whether the reported MRS IC50 of the following molecule is 0.5 µg/mL or greater: [I-].[O-][S+](c1cc2ccccc2[n+](CCCCCc2ccccc2)c1)c1ccccc1C(F)(F)F (centres unmarked) [XYZ-IV-90]
False

Data origin, for the record: patent US8288410B2
